Listed next: entries and their corresponding GI50 at 72 h.
# protocol_text: Cytotoxicity against mouse BAF3 cells assessed as cell proliferation after 72 hrs by CelltiterGlo assay
# Assay type: cell-based
parameter_measured: GI50 at 72 h (µM)

chem_smiles=CS(=O)(=O)N1CC[C@@H](n2nc(-c3ccc(Oc4ccccc4)cc3)c3c(N)ncnc32)C1 unit_of_measure=µM value_relation_sign=> measured_value=10
chem_smiles=CC(C)C[C@@H](N)C(=O)N1CCC(n2nc(-c3ccc(Oc4ccccc4)cc3)c3c(N)ncnc32)CC1 unit_of_measure=µM value_relation_sign== measured_value=0.59
chem_smiles=NCCC(=O)N1CCC[C@@H](n2nc(-c3ccc(Oc4ccccc4)cc3)c3c(N)ncnc32)C1 unit_of_measure=µM value_relation_sign=> measured_value=10
chem_smiles=CS(=O)(=O)N1CCC[C@@H](n2nc(-c3ccc(Oc4ccccc4)cc3)c3c(N)ncnc32)C1 unit_of_measure=µM value_relation_sign=> measured_value=10
chem_smiles=NCC(=O)N1CCC[C@@H](n2nc(-c3ccc(Oc4ccccc4)cc3)c3c(N)ncnc32)C1 unit_of_measure=µM value_relation_sign== measured_value=3.8
chem_smiles=CCC(=O)N1CCC[C@@H](n2nc(-c3ccc(Oc4ccccc4)cc3)c3c(N)ncnc32)C1 unit_of_measure=µM value_relation_sign== measured_value=3.8
chem_smiles=CC(C)C[C@@H](N)C(=O)N1CC[C@@H](n2nc(-c3ccc(Oc4ccccc4)cc3)c3c(N)ncnc32)C1 unit_of_measure=µM value_relation_sign== measured_value=2.15
chem_smiles=CC(C)(C)CC(=O)N1CCC[C@@H](n2nc(-c3ccc(Oc4ccccc4)cc3)c3c(N)ncnc32)C1 unit_of_measure=µM value_relation_sign== measured_value=4.6

* * *

# protocol_text: Half life in Sprague-Dawley rat at 10 mg/kg, po
# Assay type: ADME, organism-based
# condition_info: in vivo
parameter_measured: half-life

chem_smiles=CN(C)CC(=O)N1CCC[C@@H](n2nc(-c3ccc(Oc4ccccc4)cc3)c3c(N)ncnc32)C1 measured_value="1.24 h"

* * *

# Tested on: Receptor-type tyrosine-protein kinase FLT3 (Homo sapiens), P36888 [UNDEFINED MUTATION]
# Sequence (P36888 whole entry, looked up, change not shown): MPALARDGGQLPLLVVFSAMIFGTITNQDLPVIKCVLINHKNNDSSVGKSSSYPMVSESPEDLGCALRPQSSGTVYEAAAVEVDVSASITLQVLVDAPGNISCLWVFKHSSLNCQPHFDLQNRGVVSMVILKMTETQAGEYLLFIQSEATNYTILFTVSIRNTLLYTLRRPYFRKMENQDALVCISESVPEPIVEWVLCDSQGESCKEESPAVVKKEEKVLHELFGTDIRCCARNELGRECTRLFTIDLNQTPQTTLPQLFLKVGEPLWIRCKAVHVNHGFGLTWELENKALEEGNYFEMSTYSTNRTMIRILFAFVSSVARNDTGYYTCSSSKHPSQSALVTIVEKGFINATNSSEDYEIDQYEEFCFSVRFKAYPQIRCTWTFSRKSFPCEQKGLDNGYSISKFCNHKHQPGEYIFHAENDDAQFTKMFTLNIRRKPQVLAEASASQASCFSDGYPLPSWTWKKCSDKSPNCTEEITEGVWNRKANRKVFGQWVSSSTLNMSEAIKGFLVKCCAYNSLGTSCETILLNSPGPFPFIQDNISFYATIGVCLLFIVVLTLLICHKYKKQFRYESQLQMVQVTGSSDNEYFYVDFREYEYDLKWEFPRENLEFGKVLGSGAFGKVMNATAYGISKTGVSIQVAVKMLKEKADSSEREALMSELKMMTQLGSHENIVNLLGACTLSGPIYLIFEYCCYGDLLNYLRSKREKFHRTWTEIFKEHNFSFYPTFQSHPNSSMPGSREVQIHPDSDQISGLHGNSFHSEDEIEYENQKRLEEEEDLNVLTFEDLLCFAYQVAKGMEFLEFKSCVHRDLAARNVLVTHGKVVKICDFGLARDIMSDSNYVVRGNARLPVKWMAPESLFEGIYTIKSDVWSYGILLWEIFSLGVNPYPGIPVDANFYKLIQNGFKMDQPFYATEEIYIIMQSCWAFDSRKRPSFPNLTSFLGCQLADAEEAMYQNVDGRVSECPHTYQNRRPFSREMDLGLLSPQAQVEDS
# protocol_text: Inhibition of FLT3 ITD mutant (unknown origin) expressed in BaF3 cells assessed as inhibition of cell proliferation after 72 hrs by CelltiterGlo assay
# Format: cell-based
GI50 values by entry
parameter_measured: GI50 (nM)

chem_smiles=CC(C)C[C@@H](N)C(=O)N1CC[C@@H](n2nc(-c3ccc(Oc4ccccc4)cc3)c3c(N)ncnc32)C1 measured_value=41
chem_smiles=CN(C)CC(=O)N1CCC[C@@H](n2nc(-c3ccc(Oc4ccccc4)cc3)c3c(N)ncnc32)C1 measured_value=11
chem_smiles=Nc1ncnc2c1c(-c1ccc(Oc3ccccc3)cc1)nn2[C@@H]1CCCN(C(=O)C2CC2)C1 measured_value=1400
chem_smiles=CN(C)CC(=O)N1CCC[C@H](n2nc(-c3ccc(Oc4ccccc4)cc3)c3c(N)ncnc32)C1 measured_value=120
chem_smiles=C=CC(=O)N1CCC[C@@H](n2nc(-c3ccc(Oc4ccccc4)cc3)c3c(N)ncnc32)C1 measured_value=120
chem_smiles=CCC(C)(C)C(=O)N1CCC[C@@H](n2nc(-c3ccc(Oc4ccccc4)cc3)c3c(N)ncnc32)C1 measured_value=260
chem_smiles=CCCC(=O)N1CCC[C@@H](n2nc(-c3ccc(Oc4ccccc4)cc3)c3c(N)ncnc32)C1 measured_value=450
chem_smiles=CC[C@@H](C)[C@@H](N)C(=O)N1CCC[C@@H](n2nc(-c3ccc(Oc4ccccc4)cc3)c3c(N)ncnc32)C1 measured_value=88
chem_smiles=CN(C)CC(=O)N1CC[C@@H](n2nc(-c3ccc(Oc4ccccc4)cc3)c3c(N)ncnc32)C1 measured_value=41
chem_smiles=CC(=O)N1CCC[C@@H](n2nc(-c3ccc(Oc4ccccc4)cc3)c3c(N)ncnc32)C1 measured_value=70
chem_smiles=Nc1ncnc2c1c(-c1ccc(Oc3ccccc3)cc1)nn2[C@@H]1CCCN(C(=O)[C@H](N)CO)C1 measured_value=46
chem_smiles=Nc1ncnc2c1c(-c1ccc(Oc3ccccc3)cc1)nn2[C@@H]1CCCN(C(=O)CC2CC2)C1 measured_value=82
chem_smiles=CC(C)(C)C(=O)N1CCC[C@@H](n2nc(-c3ccc(Oc4ccccc4)cc3)c3c(N)ncnc32)C1 measured_value=1800
